assay: human hepatoma cell viability loss – ATP luminescence, cytotoxicity control for P. falciparum antimalarial project, primary screen (AID 2303); conditions: HepG2 viability, 24-48 h, at 10 µM, hits give high values
Field 'label' (enum: T / F). Set to T when inhibition is strictly under 30%; else F.

# check: inhibition < 30% for CC(C)(C)C1CC(=O)C[C@@H]2C(=O)N(c3ccc(Br)cc3)C(=O)[C@H]12 (some centres undefined) T

Given the entry CCOc1cc2c(cc1OCC)C(c1ccc(O)c(Cl)c1)NCC2 (centres undefined) , would its reported inhibition be below 30%? T

Input Cc1c(-c2cccc(CNCCc3ccc(Cl)cc3)c2)cnc(N)c1C ; condition: inhibition strictly below 30%. Does it hold? T

A record lists CCNc1cc(C)nc(Nc2ccc(NC(=O)c3ccccc3)cc2)n1 . Is its inhibition below 30%? F

Quick check: inhibition of FC(F)(F)c1ccc(CNCC2CCN(Cc3ccc4c(c3)OCO4)CC2)cc1 under 30%? T
